# % activity listing for each entry below
# system: human calcium receptor (Homo sapiens, UniProt P41180, R990G)
# Construct: expressed in transfected cells; host or cells: HEK 293
# Sequence (P41180 20-1078 R990G): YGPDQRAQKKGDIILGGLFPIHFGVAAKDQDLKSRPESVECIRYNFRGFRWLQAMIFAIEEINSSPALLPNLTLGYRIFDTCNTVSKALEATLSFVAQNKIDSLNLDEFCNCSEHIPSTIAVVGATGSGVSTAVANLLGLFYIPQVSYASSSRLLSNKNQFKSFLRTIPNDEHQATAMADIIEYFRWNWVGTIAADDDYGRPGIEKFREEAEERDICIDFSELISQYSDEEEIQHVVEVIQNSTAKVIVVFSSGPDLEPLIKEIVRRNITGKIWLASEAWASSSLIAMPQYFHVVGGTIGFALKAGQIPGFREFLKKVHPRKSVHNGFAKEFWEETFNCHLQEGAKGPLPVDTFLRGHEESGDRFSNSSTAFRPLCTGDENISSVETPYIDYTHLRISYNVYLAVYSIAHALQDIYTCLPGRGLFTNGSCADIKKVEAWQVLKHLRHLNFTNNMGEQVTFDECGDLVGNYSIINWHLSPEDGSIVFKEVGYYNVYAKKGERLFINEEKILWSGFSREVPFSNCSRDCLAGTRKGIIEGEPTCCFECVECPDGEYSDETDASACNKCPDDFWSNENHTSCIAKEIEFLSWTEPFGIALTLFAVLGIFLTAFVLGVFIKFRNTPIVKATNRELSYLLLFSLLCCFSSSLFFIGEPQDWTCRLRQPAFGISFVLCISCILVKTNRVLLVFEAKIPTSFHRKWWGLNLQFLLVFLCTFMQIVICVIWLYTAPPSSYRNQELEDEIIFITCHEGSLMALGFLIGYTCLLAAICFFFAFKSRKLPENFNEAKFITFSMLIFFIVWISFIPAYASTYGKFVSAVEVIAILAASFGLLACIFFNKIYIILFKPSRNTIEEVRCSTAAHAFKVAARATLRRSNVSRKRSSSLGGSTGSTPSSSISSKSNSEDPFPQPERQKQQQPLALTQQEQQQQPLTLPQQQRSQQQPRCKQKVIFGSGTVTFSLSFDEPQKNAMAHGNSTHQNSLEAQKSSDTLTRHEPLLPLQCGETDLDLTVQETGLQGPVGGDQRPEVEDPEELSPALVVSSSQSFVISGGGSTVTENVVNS
# test: increases in [Ca^2+ ]i in HEK-293 cells expressing the human calcium receptor (fura-2 loaded HEK 293/pHuPCaR4.0 cells), % activity
# Type: cell-based
# experimentalConditions: 3300 ng/mL
Report only the number, with the unit % understood.

>>> df
                                   compound  valuemeasured
0  COc1cccc([C@@H](C)NCc2ccc(C(C)(C)c3ccccc3)cc2)c1 [Compound 12O]            110
1  COc1ccc([C@H](C)N[C@@H](C)c2cccc3ccccc23)cc1C [Compound 25V]             89
2  COc1cccc([C@@H](C)NCc2ccc3c(c2)OCO3)c1 [Compound 25J]            119
3  CCC(NC(C)c1cccc2ccccc12)c1ccc(OC)cc1 (mixture of isomers) [Compound 17G]            125

Lab note: measured % activity of CC(C)Cc1ccc(C(C)CNC(C)c2cccc3ccccc23)cc1 (stereo not drawn) [Compound 13Z] was 93

Lab note: measured % activity of C[C@@H](N[C@H](C)c1cccc2ccccc12)c1ccccc1 [Compound 14O] was 119

====

# % activity listing for each entry below
# system: human calcium receptor (Homo sapiens, UniProt P41180, R990G)
# Construct: expressed in transfected cells; host or cells: HEK 293
# test: increases in [Ca^2+ ]i in HEK-293 cells expressing the human calcium receptor (fura-2 loaded HEK 293/pHuPCaR4.0 cells), % activity
# Type: cell-based
# experimentalConditions: 330 ng/mL

Illustrative cases are given below, each with its answer.
>>> print(df.to_string())
                                   compound  valuemeasured
0  COc1ccc([C@H](C)N[C@@H](C)c2cccc3ccccc23)cc1C [Compound 25V]            59%
1  COc1cccc([C@@H](C)NCC=Cc2c(C)cc(C)cc2C)c1 [Compound 12D]           109%
2  COc1cccc([C@@H](C)NCCCc2ccccc2F)c1 [Compound 21R]           100%

Lab note: measured % activity of C[C@@H](NCc1ccc2c(c1)OCO2)c1cccc2ccccc12 [Compound 16R] was 100%

Lab note: measured % activity of C[C@@H](NCc1ccc(Br)cc1)c1cccc2ccccc12 [Compound 17D] was 108%

====

# system: human calcium receptor (Homo sapiens, UniProt P41180, R990G)
# Construct: expressed in transfected cells; host or cells: HEK 293
# test: increases in [Ca^2+ ]i in HEK-293 cells expressing the human calcium receptor (fura-2 loaded HEK 293/pHuPCaR4.0 cells), % activity
# Format: cell-based
# experimentalConditions: HEK293; 330 ng/mL
readout: activity at […] (%)
Report only the number, with the unit % understood.

                                   compound          readout  unitinfo  valuemeasured
0  CC(C)c1ccc([C@@H](C)N[C@H](C)c2cccc3ccccc23)cc1 [Compound 14L]  activity at […]         %            109
1  COc1ccc(CNC(C)c2ccccc2OC)cc1C (centres unmarked) [Compound 23H]  activity at […]         %            114
2  C[C@H](CCc1cccc(OC(F)(F)F)c1)N[C@H](C)c1cccc2ccccc12 [Compound 22Y]  activity at […]         %            114
3  C[C@H](CCc1cccc(OC(F)(F)F)c1)N[C@@H](C)c1cccc2ccccc12 [Compound 22X]  activity at […]         %             86

Here is another compound to look at.
// activity at […] (human calcium receptor (Homo sapiens, UniProt P41180, R990G)) for COc1cccc([C@@H](C)NCc2cccc3ccccc23)c1 [Compound 25F] = 85

====

# system: human calcium receptor (Homo sapiens, UniProt P41180, R990G)
# Construct: expressed in transfected cells; host or cells: HEK 293
# test: increases in [Ca^2+ ]i in HEK-293 cells expressing the human calcium receptor (fura-2 loaded HEK 293/pHuPCaR4.0 cells), % activity
# Assay type: cell-based
# experimentalConditions: 33 ng/mL
# % activity listing for each entry below
Report only the number, with the unit % understood.

Illustrative cases are given below, each with its answer.
>>> print(df.to_string())
                                   compound                                    system     readout  valuemeasured
0  CC(NCCC(c1ccccc1)c1ccccc1)c1ccccc1F (stereo not shown)  human calcium receptor (Homo sapiens, UniProt P41180, R990G)  % activity              7
1  COc1cccc([C@@H](C)NCc2ccc3c(c2)OCO3)c1 [Compound 25J]  human calcium receptor (Homo sapiens, UniProt P41180, R990G)  % activity            105
2  COc1ccc([C@@H](C)N[C@H](C)c2cccc(OC)c2)cc1 [Compound 16L]  human calcium receptor (Homo sapiens, UniProt P41180, R990G)  % activity             98
3  COc1cccc([C@@H](C)N[C@H](C)CCc2cccc(C(F)(F)F)c2)c1 [Compound 21Y]  human calcium receptor (Homo sapiens, UniProt P41180, R990G)  % activity             68
4  C[C@@H](NCc1ccc(F)cc1)c1cccc2ccccc12 [Compound 13T]  human calcium receptor (Homo sapiens, UniProt P41180, R990G)  % activity             53
5  COc1ccc(CNC(C)c2ccccc2C(F)(F)F)cc1C (stereo not shown) [Compound 24B]  human calcium receptor (Homo sapiens, UniProt P41180, R990G)  % activity             34

// % activity (human calcium receptor (Homo sapiens, UniProt P41180, R990G)) for COc1cccc(C(C)NC(C)c2cccc(OC)c2)c1 (stereo not shown) [Compound 16N] = 82

// % activity (human calcium receptor (Homo sapiens, UniProt P41180, R990G)) for CC(NCCCc1ccccc1)c1c[nH]c2ccccc12 (stereo not shown) = 4

// % activity (human calcium receptor (Homo sapiens, UniProt P41180, R990G)) for COc1cccc([C@@H](C)NCCCc2ccc(C(C)C)cc2)c1 [Compound 12Y] = 46

// % activity (human calcium receptor (Homo sapiens, UniProt P41180, R990G)) for CC(NCc1ccc2ccccc2c1)c1ccccc1 (stereo not shown) = 8

====

# system: human calcium receptor (Homo sapiens, UniProt P41180, R990G)
# Construct: expressed in transfected cells; host or cells: HEK 293
# test: increases in [Ca^2+ ]i in HEK-293 cells expressing the human calcium receptor (fura-2 loaded HEK 293/pHuPCaR4.0 cells), % activity
# Format: cell-based
# experimentalConditions: 330 ng/mL
Counter-ions that a name gives are not always drawn.
Would you please tag the item label 1 when its % activity is 90% or above, and label 0 when it is below?

>>> df
                                   compound                                    system    group
0  COc1cccc([C@@H](C)NCCCc2c(F)cccc2F)c1 [Compound 24L]  human calcium receptor (Homo sapiens, UniProt P41180, R990G)  label 1
1  COc1ccc(CCCN[C@H](C)c2cccc(OC)c2)cc1 [Compound 20I]  human calcium receptor (Homo sapiens, UniProt P41180, R990G)  label 0
2  COc1ccc(CNC(C)c2cccc(C)c2)cc1C (stereo not shown) [Compound 23X]  human calcium receptor (Homo sapiens, UniProt P41180, R990G)  label 1
3  COc1cccc([C@H](C)NC[C@H](C)C=Cc2ccccc2)c1 [Compound 25I]  human calcium receptor (Homo sapiens, UniProt P41180, R990G)  label 1
4  COc1cccc([C@@H](C)NCCCc2ccccc2Cl)c1 [NPS R-568, reference compound]  human calcium receptor (Homo sapiens, UniProt P41180, R990G)  label 1

IN: Does COc1ccc(C(C)NC(C)c2cccc3ccccc23)cc1 (stereo not shown) [Compound 16J] have a reported % activity of at least 90%?
OUT: label 0

IN: Does CC(NCCC(c1ccccc1)c1ccccc1)c1cccc(F)c1 (stereo not shown) have a reported % activity of at least 90%?
OUT: label 0

IN: Does CC(NCCCC1CCCCC1)c1ccccc1 (stereo not shown) have a reported % activity of at least 90%?
OUT: label 0

IN: Does CSc1cccc(C(C)NCCCc2ccccc2)c1 (stereo not shown) [Compound 8J, hydrochloride] have a reported % activity of at least 90%?
OUT: label 1

IN: Does COc1cccc([C@@H](C)NCC=Cc2cccc(C)c2)c1 [Compound 12G] have a reported % activity of at least 90%?
OUT: label 1

All figures here come from patent US6211244A.
